Test system: Colon cancer organoid
Assay: Targeting of F14 CAF-induced therapy resistance in O23 CRC organoid-stroma co-culture. Cell viability is reported with SN-38.
Assay type: functional, Homo sapiens
Conditions: Homo sapiens, Concentration 10 uM; read-out: Cell Viability
Square brackets hold non-standard residues; d marks the D form. Peptide text beside a SMILES is read from it. Arg(Me) = CNC(=N)NCCC[C@H](N)C(=O)O; d4Pal = N[C@H](Cc1ccncc1)C(=O)O; azaGly = NNC(=O)O
MEASUREMENT LABEL: viability at 10 µM
Note to self: number, then unit, no commentary.

# example entries with known answers
COMPOUND: Cn1cncc1[C@](O)(COc1ccc(C#N)cc1-c1ccc(OC(F)(F)F)cc1)c1ccc(C#N)cc1
SYSTEM UNDER TEST: Colon cancer organoid
viability at 10 µM: 76.2%
//
COMPOUND: CNC(=N)NCCC[C@H](NC(=O)[C@H](CC(C)C)NC(=O)NNC(=O)[C@H](Cc1ccccc1)NC(=O)[C@H](CO)NC(=O)[C@H](CC(N)=O)NC(=O)[C@@H](Cc1ccncc1)NC(=O)[C@H](N)Cc1ccc(O)cc1)C(=O)N[C@@H](Cc1ccccc1)C(N)=O [KISS1-305] (H-[dY][d4Pal]NSF[azaGly]L[Arg(Me)]F-NH2)
SYSTEM UNDER TEST: Colon cancer organoid
viability at 10 µM: 61.3%
//
COMPOUND: CC(C)(O)[C@H](F)CN1Cc2cc(NC(=O)c3cnn4cccnc34)c(N3CCOCC3)cc2C1=O
SYSTEM UNDER TEST: Colon cancer organoid
viability at 10 µM: 51.5%
//
COMPOUND: c1ccc(C2CCN(c3cnc4c(N5CCOCC5)nccn34)CC2)cc1
SYSTEM UNDER TEST: Colon cancer organoid
viability at 10 µM: 108%
//
COMPOUND: Cc1cc(C)cc(C(=O)NOCCCCCC(=O)NO)c1
SYSTEM UNDER TEST: Colon cancer organoid
viability at 10 µM: 130%
//
COMPOUND: Cn1c(C2(NC(=O)c3ccc(NCC4CCCCC4)nc3)CCC2)nc2ccc(/C=C/C(=O)O)cc21
SYSTEM UNDER TEST: Colon cancer organoid
viability at 10 µM: 69.9%
//
COMPOUND: Cn1cc(CNCC2CCN(c3ncc(C(=O)NO)cn3)CC2)c2ccccc21
SYSTEM UNDER TEST: Colon cancer organoid
viability at 10 µM: 1.67%
//
COMPOUND: C[C@H]1CC(=O)Nc2cc(C(=O)NCCC3CC3)ccc2N1C(=O)N1CC2CC2C1 (stereo partly drawn)
SYSTEM UNDER TEST: Colon cancer organoid
viability at 10 µM: 160%
//
COMPOUND: COc1cc2c(cc1NS(=O)(=O)c1ccc(Br)cc1C)n(C)c(=O)n2C
SYSTEM UNDER TEST: Colon cancer organoid
viability at 10 µM: 117%
//
COMPOUND: O=C1[C@H](Cc2ccc(O)cc2)N2C(=O)CCN(C(=O)NCc3ccccc3)[C@H]2CN1Cc1cccc2ccccc12
SYSTEM UNDER TEST: Colon cancer organoid
viability at 10 µM: 103%

**Query** Entry `CN1CCN(C(=O)C(C)(C)c2ccc(C(=O)Nc3cn4cc(-c5cc(C(C)(C)C)cc(C(C)(C)C)c5)ccc4n3)cc2)CC1` : reported viability at 10 µM = ?
**Result** 63.2%

**Query** # lookup: viability at 10 µM of `CN(C)CC#Cc1ccc(OCCCc2sc(N3CCc4cccc(C(=O)Nc5nc6ccccc6s5)c4C3)nc2C(=O)O)c(F)c1`
**Result** 0.449%

**Query** // lookup viability at 10 µM for `Cn1cc(-c2ccc3occ(-c4cccc(-c5ccncc5)c4)c3n2)cn1`
**Result** 65.6%

* * *

Test system: Colon cancer organoid
Experiment: Targeting of F14 CAF-induced therapy resistance in O23 CRC organoid-stroma co-culture. Cell viability is reported with Gefitinib.
Type: functional, Homo sapiens
Conditions: Homo sapiens, Concentration 10 uM; read-out: Cell Viability
Classify: criterion met when viability at 10 µM is strictly less than 70%; criterion not met when viability at 10 µM is not.

COMPOUND: COc1cc(Nc2nccc(-c3cnn4nc(OC)ccc34)n2)cc(C(F)(F)F)c1
LABEL VALUE: criterion met

Lab note: next compound to report on.
**Query** Say whether its viability at 10 µM is strictly beneath 70%. Entry: `CCCOc1ccn2c(C(C)=O)cc(-c3cccc(OC)c3)c2c1`
**Result** criterion not met

* * *

System: Colon cancer organoid
Assay: Targeting of F14 CAF-induced therapy resistance in O23 CRC organoid-stroma co-culture. Cell viability is reported with SN-38.
Format: functional, Homo sapiens
Settings: Homo sapiens, Concentration 10 uM; read-out: Cell Viability
# reported viability at 10 µM; entries follow
Number in %, nothing else.

COMPOUND: CN(C)[C@H]1CCN(c2cc(-c3ccccc3)nc3ccnn23)C1 [(S)-ZINC-3573]
viability at 10 µM, %: 49.3
//
COMPOUND: O=C(c1ccc(C(=O)N2CCC(N3CCCC3)CC2)c(Nc2ccccc2)c1)N1CCC(N2CCCC2)CC1
viability at 10 µM, %: 67.2

**Query** // fetch Colon cancer organoid viability at 10 µM for `CCN(Cc1ccc(Cl)cc1)c1ncc(C(=O)NCCCN2CCCC2=O)c(NC2CCCC2)n1`
**Result** 61.6

**Query** Lookup: viability at 10 µM / Colon cancer organoid / `COc1cc2c(NC3CCN(C(C)C)CC3)nc(N3CCC(F)(F)CC3)nc2cc1OCCCN1CCCC1`
**Result** 91.7

**Query** Observed viability at 10 µM on Colon cancer organoid for `Cn1cc(-c2ccc3occ(-c4ccccc4-c4ccccc4)c3n2)cn1` , please.
**Result** 63.4

**Query** What reported viability at 10 µM corresponds to COc1cccc(CNC(=O)c2nc3scc(CN(C)Cc4ccccc4)c3c(=O)[nH]2)c1 [T-26f] on Colon cancer organoid?
**Result** 67.3

**Query** Please tell me: viability at 10 µM of `COc1c(C)cc(NC(=O)c2nn(Cc3ccc(F)cc3)c3c2CN(C(=O)c2ccc[nH]2)C[C@]3(C)C(N)=O)cc1C` , system Colon cancer organoid?
**Result** 73.7

* * *

Tested on: Colon cancer organoid
Experiment: Targeting of F14 CAF-induced therapy resistance in O14 CRC organoid-stroma co-culture. Cell viability is reported without Gefitinib.
Format: functional, Homo sapiens
Details: Homo sapiens, Concentration 10 uM; read-out: Cell Viability
MEASUREMENT LABEL: viability at 10 µM (%)
The reply should be a number in %, with the unit left off.

Check out these entries, answers already filled in.
COMPOUND: CN1CCN(c2ccc(-c3cccc(CN4CCOCC4)c3)cc2NC(=O)c2c[nH]c(=O)cc2C(F)(F)F)CC1
viability at 10 µM [%]: 99.7
//
COMPOUND: CCN(CCO)CCCOc1ccc2c(Nc3cc(CC(=O)Nc4cccc(F)c4)[nH]n3)ncnc2c1
viability at 10 µM [%]: 9.69
//
COMPOUND: CCc1cc2cc(NS(=O)(=O)c3ccc(C#N)cc3)ccc2n(CC)c1=O
viability at 10 µM [%]: 106
//
COMPOUND: Cc1cc(C)cc(C(=O)NOCCCCCC(=O)NO)c1
viability at 10 µM [%]: 28.3
//
COMPOUND: Clc1cccc(-c2nnnn2Cc2cccnc2)c1Cl
viability at 10 µM [%]: 127
//
COMPOUND: COc1cc2c(NC3CCN(C(C)C)CC3)nc(N3CCC(F)(F)CC3)nc2cc1OCCCN1CCCC1
viability at 10 µM [%]: 71.2
//
COMPOUND: C=CC(=O)Nc1ccc2[nH]c(=O)n(C3CCN(Cc4ccc(-c5ccc6c(c5)NC(=O)CO6)cc4)CC3)c2c1
viability at 10 µM [%]: 101
//
COMPOUND: CN(C)[C@H]1CN(C2CCc3cccc(F)c32)C[C@@H]1c1ccc(N2CCN(S(C)(=O)=O)CC2)cc1 (some centres undefined)
viability at 10 µM [%]: 70.2

**Query** Value wanted: viability at 10 µM (Colon cancer organoid) of entry CN(C)[C@H]1CCN(c2cc(-c3ccccc3)nc3ccnn23)C1 [(S)-ZINC-3573]
**Result** 68.9

**Query** Record `C[C@H](NC(=O)c1cnc2n1[C@](C)(Cc1ccc(C#N)cc1)C(=O)N2c1cc(Cl)c(F)c(Cl)c1)C(=O)NC1(c2ccccn2)CC1` : what is its viability at 10 µM with Colon cancer organoid?
**Result** 125

**Query** For Colon cancer organoid, provide viability at 10 µM of `O=C(/C=C/N1C[C@H]2C[C@@H]1CN2c1ccccn1)c1ccccc1O` please.
**Result** 109

**Query** Recall the recorded viability at 10 µM for `COCCc1ccc(-c2c(C)nc3c(N4CCOCC4)ccnn23)cn1` with Colon cancer organoid and state it.
**Result** 122

**Query** # returns recorded viability at 10 µM (system: Colon cancer organoid) for `CC(C)Oc1ccc(-c2c[nH]cc2CN(C)CCO)cc1`
**Result** 72

**Query** # value lookup — system Colon cancer organoid, readout viability at 10 µM, item `Cn1nc(C(=O)NCc2ccc(C(=O)O)cc2)cc1-c1ccc2[nH]ccc2c1`
**Result** 95.3

**Query** Notebook: pull reported viability at 10 µM for Colon cancer organoid, entry `COc1ccccc1S(=O)(=O)Nc1ccc2c(c1)CN(C)C(=O)N2`
**Result** 101

**Query** What viability at 10 µM appears in the records for this compound with Colon cancer organoid? `CO[C@@H](C)c1c(Nc2ccc([C@@H](N(C)C(=O)C3CCS(=O)(=O)CC3)C(F)(F)F)cc2)cnc2cc(Cl)nn12`
**Result** 84.5

**Query** So what viability at 10 µM did `Cc1cc(CN)cc(C)c1-c1ncn(C)c1-c1cncn1C` get with Colon cancer organoid?
**Result** 112

**Query** Reported viability at 10 µM for Colon cancer organoid, given `COc1ccccc1-c1cc(N2CCN(C(=O)OC(C)(C)C)CC2)c(N)nn1` ?
**Result** 101

**Query** Notebook: pull reported viability at 10 µM for Colon cancer organoid, entry `CNCCN1CCC(c2cc(CN(C)C(=O)c3cccc(Oc4ccccc4)c3)ccn2)CC1`
**Result** 80.6
